The entries below come with measured log10 of IC50 values attached.
- Test system: Rat fibroblasts (CREF)
- test.description: Peg3 promoter luciferase inhibitors, potency, dose response, cell-based, HeLa, CREF/GAPDH counter-screen panel (AID 624167)
- study.conditions: CREF/GAPDH counter-screens, run 1, dose range 1, individual replicate IC50 per panel
Heads up, the numbers here are log10 of IC50 in µM units.

Record excerpt, results attached:
>  <molecule>
Cc1oc(-c2ccc3c(c2)OCCO3)cc1C(=O)O

>  <target.system>
Rat fibroblasts (CREF)

>  <parameter.measured>
log10 of IC50

>  <obs.value>
1.49

$$$$
>  <molecule>
O=C(CCl)Nc1ccccc1Sc1ccc(Cl)cc1

>  <target.system>
Rat fibroblasts (CREF)

>  <parameter.measured>
log10 of IC50

>  <obs.value>
0.91

$$$$
>  <molecule>
COc1cccc(NC(=O)c2nc(S(C)(=O)=O)ncc2Cl)c1

>  <target.system>
Rat fibroblasts (CREF)

>  <parameter.measured>
log10 of IC50

>  <obs.value>
1.01

$$$$

Note to self: log10 of IC50 of Cc1cc(NC(c2cccnc2)c2ccc3cccnc3c2O)no1 (stereo not drawn) with Rat fibroblasts (CREF) was 0.75

Sample `O=C(CNCCC1=CCCCC1)Nc1ccc(N2CCCCCC2)cc1` , system: Rat fibroblasts (CREF). Its log10 of IC50 is 1.22

Test item Cc1ccc(C(C[N+](=O)[O-])Sc2ccc(N)cc2)cc1 (stereo not drawn) ; Rat fibroblasts (CREF); reported log10 of IC50 was 1.41

Tested on Rat fibroblasts (CREF): `C=CCn1c(C)cc(C2=NNC(=NCC)SC2)c1C` . Observed log10 of IC50: 0.17

====

- target.system: PEG-3 (UniProt Q6IN02)
- Sequence (Q6IN02 whole entry, looked up): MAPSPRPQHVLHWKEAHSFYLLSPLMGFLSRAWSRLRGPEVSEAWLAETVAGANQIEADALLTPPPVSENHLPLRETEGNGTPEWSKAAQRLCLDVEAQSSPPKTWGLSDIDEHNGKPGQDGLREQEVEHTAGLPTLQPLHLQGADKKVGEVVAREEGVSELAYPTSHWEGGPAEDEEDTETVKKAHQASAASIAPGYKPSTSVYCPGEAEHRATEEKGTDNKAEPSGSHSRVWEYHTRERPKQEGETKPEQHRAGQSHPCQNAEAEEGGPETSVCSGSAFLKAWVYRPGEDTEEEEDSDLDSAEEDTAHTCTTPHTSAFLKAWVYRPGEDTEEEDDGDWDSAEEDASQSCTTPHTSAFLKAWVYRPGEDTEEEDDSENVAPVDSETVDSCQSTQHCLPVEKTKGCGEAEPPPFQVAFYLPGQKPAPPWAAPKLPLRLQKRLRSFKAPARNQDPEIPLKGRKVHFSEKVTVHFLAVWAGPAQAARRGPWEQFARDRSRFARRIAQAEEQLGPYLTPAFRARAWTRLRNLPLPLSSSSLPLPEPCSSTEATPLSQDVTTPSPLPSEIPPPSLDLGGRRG
- test.description: Peg3 promoter luciferase inhibitors, potency, dose response, cell-based, HeLa, CREF/GAPDH counter-screen panel (AID 624167)
- study.conditions: HeLa PEG-Prom luciferase reporter, overnight, CREF/GAPDH counter-screens, mean of runs
Calls of active or inactive are those of the source.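 How the source made its calls: active means mean IC50 for reducing PEG3 promoter reporter signal at or below a set limit, with IC50 above the limit in both counter screens; inactive means the rest, including counter screen hits.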
Tick one outcome: active, inactive

>  <compound>
COc1cc(NC(=O)c2c(F)c(F)c(F)c(F)c2F)c(OC)cc1Cl

>  <category.label>
active

$$$$
>  <compound>
CCCC(=O)NC(c1ccc(OC)cc1)c1ccc2cccnc2c1O (stereo unspecified)

>  <category.label>
active

$$$$
>  <compound>
CC(C)CC(N)c1csc(NC(=O)Nc2ccccc2C(C)(C)C)n1 (stereo unspecified)

>  <category.label>
inactive

$$$$

Test call, this compound: `CCOC(=O)c1c(-n2c(C)cc(C=C3C(=O)NC(=S)NC3=O)c2C)sc2c1CCCC2`
active

Please indicate how the test categorized CCCCCCCn1c(=N)n(CC(O)c2ccco2)c2ccccc21 (stereo unspecified) .
inactive

====

- Tested on: PEG-3
- test.description: Peg3 promoter luciferase inhibitors, potency, dose response, cell-based, HeLa, CREF/GAPDH counter-screen panel (AID 624167)
- study.conditions: HeLa PEG-Prom luciferase reporter, overnight, CREF/GAPDH counter-screens, run 1, dose range 1, individual replicate IC50 per panel
parameter.measured: IC50 (µM)
Answer with a number only, understood to be in µM.

Example results:
>  <smiles.text>
Cc1cc(C)c2sc(N(CCCN(C)C)C(=O)c3ccc(S(=O)(=O)N(C)C4CCCCC4)cc3)nc2c1

>  <target.system>
PEG-3

>  <IC50 / µM>
18.9

$$$$
>  <smiles.text>
CCN(CC)CCSc1nnc2c3cc(C)ccc3n(Cc3ccccc3)c2n1

>  <target.system>
PEG-3

>  <IC50 / µM>
30.6

$$$$
>  <smiles.text>
CC(C)(C)C(=O)Nc1cc2nn(-c3ccccc3)nc2cc1Cl

>  <target.system>
PEG-3

>  <IC50 / µM>
10.9

$$$$

PEG-3 IC50 of `COc1ccc(-n2c(O)c(/C=N/Nc3nc(C)cc(C)n3)c3ccccc3c2=O)cc1OC` is 2.71

Where these numbers come from: PubChem BioAssay AID624167
